This collection of values is drawn from PubChem BioAssay (Tox21).

measurement-target: Nuclear receptor subfamily 1 group I member 2 (Homo sapiens) (UniProt O75469)
assay-summary: CYP3A4 induction through human pregnane X receptor (PXR) by small molecules, qHTS assay (AID 1346984); further: nearly all actives have a fitted effect of over 40% in size
condition-parameters: DPX-2 HepG2 PXR, CYP3A4-luciferin luminescence, 24 h; series mostly up to 46.1 µM
Inconclusive results are not listed. Active and inactive are the calls of the source. The call rests on the fitted dose curve; in most records, active means well fitted activation curve with a large enough effect in the repeat runs; inconclusive means weak or mixed curves; inactive means no such curve, though single readings can be large or run the other way.

{"columns": ["compound", "measurement-target", "outcome"],
 "data": [
  ["CC(=O)O[C@]1(C(C)=O)CC[C@H]2[C@@H]3C=C(Cl)C4=CC(=O)[C@@H]5C[C@@H]5[C@]4(C)[C@H]3CC[C@@]21C", "Nuclear receptor subfamily 1 group I member 2 (Homo sapiens) (UniProt O75469)", "inactive"],
  ["Nc1ccc(S(=O)(=O)Nc2cnc3ccccc3n2)cc1", "Nuclear receptor subfamily 1 group I member 2 (Homo sapiens) (UniProt O75469)", "inactive"],
  ["C[C@]12CCC(=O)C=C1CC[C@@H]1[C@@H]2C(=O)C[C@@]2(C)[C@H]1CC[C@]2(O)C(=O)CO", "Nuclear receptor subfamily 1 group I member 2 (Homo sapiens) (UniProt O75469)", "inactive"],
  ["O=C(COc1ccc(Cl)cc1)N1CCN(Cc2ccc3c(c2)OCO3)CC1", "Nuclear receptor subfamily 1 group I member 2 (Homo sapiens) (UniProt O75469)", "inactive"],
  ["C[Si](C)(C)O[Si](C)(C)C", "Nuclear receptor subfamily 1 group I member 2 (Homo sapiens) (UniProt O75469)", "inactive"],
  ["C=C(C)C1CC=C(C)CC1 (centres undefined)", "Nuclear receptor subfamily 1 group I member 2 (Homo sapiens) (UniProt O75469)", "inactive"],
  ["CN(C)CCN(Cc1cccs1)c1ccccn1", "Nuclear receptor subfamily 1 group I member 2 (Homo sapiens) (UniProt O75469)", "inactive"],
  ["Cc1c(C(N)=O)cc([N+](=O)[O-])cc1[N+](=O)[O-]", "Nuclear receptor subfamily 1 group I member 2 (Homo sapiens) (UniProt O75469)", "inactive"],
  ["O=C1c2cccc(O)c2C(=O)c2c(O)cccc21", "Nuclear receptor subfamily 1 group I member 2 (Homo sapiens) (UniProt O75469)", "inactive"]
]}
